Source listed as patent US8580918B2.

# assay_notes: Pharmacokinetics in rats after intravenous bolus injection (systemic clearance)
# Type: in vivo
# condition_details: rat, in vivo, adult male Sprague-Dawley rats, i.v. bolus, dose 0.20 mg FB/kg, read-out: CL (ml/kg/min) Average
Where no end group is shown, it is not given here.

[
  {
    "substance": "HGEGSFSSELSTILDALAARDFIAWLIATKITDKKKKKK-NH2 (C-terminus assumed) [ZP-1846, reference compound]",
    "scale_unit": "mL/kg/min",
    "clearance": 2.8
  }
]

* * *

# assay_notes: Pharmacokinetics in rats after intravenous bolus injection (systemic clearance)
# Assay type: in vivo
# condition_details: rat, plasma, 0.2 mg FB/kg, adult male Sprague-Dawley rats, i.v. bolus, dose 0.20 mg FB/kg, read-out: CL (ml/kg/min) Average
Where no end group is shown, it is not given here.
reported_property: clearance (mL/kg/min)

[
  {
    "substance": "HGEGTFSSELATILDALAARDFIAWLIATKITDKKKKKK-NH2 [ZP-1848, reference compound]",
    "recorded_number": 2.4
  }
]
